Reported fluorescence intensity values follow for various binders
assayed target: T1, human glycophorin A in the red blood cell membrane (human, UniProt P02724 20-150)
T1 construct: whole, on cells; used for intact RBC, isolated RBC membranes and transfected cells; the assay field tells which; also called GPA; hGPA
T1 sequence (looked up): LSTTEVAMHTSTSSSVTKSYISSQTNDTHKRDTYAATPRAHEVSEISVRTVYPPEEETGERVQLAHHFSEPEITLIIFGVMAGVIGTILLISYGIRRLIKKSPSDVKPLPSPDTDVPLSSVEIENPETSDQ
test protocol: FACS, RBC Hu03

binder	fluorescence intensity
Hu6C12-13 (antibody, V domains shown, IgG format; VH.1d + Vk.1a) VH: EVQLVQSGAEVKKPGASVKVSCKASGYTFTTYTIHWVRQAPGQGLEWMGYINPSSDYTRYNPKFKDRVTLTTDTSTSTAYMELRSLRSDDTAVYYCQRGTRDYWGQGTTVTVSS VL: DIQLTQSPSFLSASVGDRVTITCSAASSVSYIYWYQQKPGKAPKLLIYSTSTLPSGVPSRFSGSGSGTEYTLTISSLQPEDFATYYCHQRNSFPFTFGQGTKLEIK	2
Hu6C12-11 (antibody, V domains shown, IgG format; VH.1b + Vk.1a) VH: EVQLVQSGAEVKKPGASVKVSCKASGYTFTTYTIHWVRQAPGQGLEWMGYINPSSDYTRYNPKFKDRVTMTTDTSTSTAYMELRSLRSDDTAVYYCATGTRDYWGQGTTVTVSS VL: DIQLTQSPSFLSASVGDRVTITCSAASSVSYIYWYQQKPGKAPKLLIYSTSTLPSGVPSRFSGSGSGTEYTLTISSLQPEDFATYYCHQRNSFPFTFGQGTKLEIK	387
Hu6C12-1 (antibody, V domains shown, IgG format; VH.1a + Vk.1) VH: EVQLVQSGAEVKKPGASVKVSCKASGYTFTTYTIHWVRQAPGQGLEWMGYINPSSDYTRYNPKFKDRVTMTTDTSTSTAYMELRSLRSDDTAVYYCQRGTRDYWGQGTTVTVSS VL: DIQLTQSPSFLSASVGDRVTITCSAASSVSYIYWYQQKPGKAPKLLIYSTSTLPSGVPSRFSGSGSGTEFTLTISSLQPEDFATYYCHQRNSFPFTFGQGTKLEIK	2
